Hello, the source for this data is patent US9204653B2, in case you need it.

Listed below: pest or weed control at 25 ppm values for each entry.
Tested on: Mycosphaerella graminicola; Anamorph: Septoria tritici; Bayer Code SEPTTR
Experiment: Leaf blotch of wheat, foliar fungicide treatment, one day protectant (1DP) or three day curative (3DC)
Type: in vivo, Septoria tritici on wheat plants (variety Yuma)
Conditions: Zymoseptoria tritici, 72 h, three day curative, 25 ppm, rating of percent disease control, read-out: SEPTTR 3DC 25 ppm

                                   molecule                            assayed_system  experimental_result
0                       CSCCOc1ncc(F)c(N)n1  Mycosphaerella graminicola; Anamorph: Septoria tritici; Bayer Code SEPTTR             0 to 25%
1                Nc1nc(OCc2ccc(Cl)cc2)ncc1F  Mycosphaerella graminicola; Anamorph: Septoria tritici; Bayer Code SEPTTR           76 to 100%
2  Cc1ccc(COc2ncc(F)c(NC(=S)NCc3ccccc3F)n2)cc1  Mycosphaerella graminicola; Anamorph: Septoria tritici; Bayer Code SEPTTR            51 to 75%

Output pest or weed control at 25 ppm of "COc1ccc(COc2ncc(F)c(NCOCc3ccccc3)n2)cc1F" 0 to 25%

Output pest or weed control at 25 ppm of "Nc1nc(OCc2csc3ccccc23)ncc1F" 76 to 100%

Output pest or weed control at 25 ppm of "Fc1ccc(COc2ncc(F)c(-n3ccnc3)n2)cc1" 76 to 100%

Output pest or weed control at 25 ppm of "COc1cccc(COc2ncc(F)c(N/N=C/c3nc(C)cs3)n2)c1" 0 to 25%

Output pest or weed control at 25 ppm of "COc1cccc(COc2ncc(F)c(NC(=S)Nc3ccccc3F)n2)c1" 51 to 75%

Output pest or weed control at 25 ppm of "CC[Si](CC)(CC)Nc1nc(OCc2ccc(OC)c(F)c2)ncc1F" 76 to 100%

Output pest or weed control at 25 ppm of "COc1ccc(COc2ncc(F)c(/N=C3\CCCCN3C)n2)cc1F" 51 to 75%

Output pest or weed control at 25 ppm of "COc1cccc(COc2ncc(F)c(N)n2)c1OC" 76 to 100%

Output pest or weed control at 25 ppm of COc1cccc(COc2ncc(F)c(NOC3CCCCO3)n2)c1 (stereo not shown) 0 to 25%

Output pest or weed control at 25 ppm of "Nc1nc(OCc2ccc(OC(F)(F)F)cc2)ncc1F" 76 to 100%
